Origin of the recorded values: PubChem BioAssay (NCATS)

Hi there, I'd appreciate the recorded Potency for every entry that follows.
- assay-comment: Cellular viability qHTS for adrenocortical cancer (ACC) cell line SW-13 (AID 1963989); further: potency means the concentration at half of the fitted maximal effect; nearly all actives have a fitted effect of over 65% in size
- condition: SW-13 ACC cells viability, CellTiter-Glo, 48 h
Results filed as inconclusive are left out. Activity calls are given as the source filed them. The call rests on the fitted dose curve; in most records, active means well fitted cell-killing curve with a large enough effect; inconclusive means small, poorly fitted or top-dose-only effect; inactive means flat fitted curve, though single readings scatter.

Give recorded Potency. CCCN(CCC)c1c([N+](=O)[O-])cc(S(N)(=O)=O)cc1[N+](=O)[O-]
7.94 µM (active)

Give recorded Potency. Cc1[nH]nc2ccc(-c3cncc(OC[C@@H](N)Cc4c[nH]c5ccccc45)c3)cc12
0.708 µM (active)

Give recorded Potency. COC(=O)[C@]12CCC(C)(C)C[C@H]1[C@H]1C(=O)C=C3[C@@]4(C)C=C(C#N)C(=O)C(C)(C)[C@@H]4CC[C@@]3(C)[C@]1(C)CC2
6.31 µM (active)

Give recorded Potency. COC12C(COC(N)=O)C3=C(C(=O)C(C)=C(N)C3=O)N1CC1C2N1C (stereo unspecified)
25.1 µM (active)

Give recorded Potency. CC(C)[C@]12O[C@H]1[C@@H]1O[C@@]13[C@@]1(C)CCC4=C(COC4=O)[C@@H]1C[C@@H]1O[C@@]13C2=O
0.141 µM (active)

Give recorded Potency. COC(=O)[C@@]12OC[C@]34[C@H]([C@@H](O)[C@@H]1O)[C@@]1(C)CC(=O)C(O)=C(C)[C@@H]1C[C@H]3OC(=O)[C@H](OC(=O)/C=C(\C)C(C)C)[C@@H]24
6.31 µM (active)

Give recorded Potency. CCCCCCCCCCCC[N+](C)(C)CCOc1ccccc1
5.17 µM (active)

Give recorded Potency. C[C@H]1O[C@@H](O[C@H]2[C@@H](O)C[C@H](O[C@H]3[C@@H](O)C[C@H](O[C@H]4CC[C@@]5(C)[C@H](CC[C@@H]6[C@@H]5CC[C@]5(C)[C@@H](C7=CC(=O)OC7)CC[C@]65O)C4)O[C@@H]3C)O[C@@H]2C)C[C@H](O)[C@@H]1O
0.0184 µM (active)

Give recorded Potency. CC(C)(O)/C=C\C(=O)[C@](C)(O)[C@H]1[C@H](O)C[C@]2(C)[C@@H]3CC=C4[C@@H](C=C(O)C(=O)C4(C)C)[C@]3(C)C(=O)C[C@@]12C
0.562 µM (active)

Give recorded Potency. CC(=O)[O][Hg][c]1ccccc1
1.3 µM (active)

Give recorded Potency. O=c1c(C2CC(c3ccc(-c4ccc(Br)cc4)cc3)Cc3ccccc32)c(O)sc2ccccc12 (stereo unspecified)
5.8 µM (active)

Give recorded Potency. C[C@@]12OC(=O)[C@]1([C@@H](O)[C@@H]1C=CCCC1)NC(=O)[C@@H]2CCCl
0.501 µM (active)

Give recorded Potency. COc1cc([C@@H]2c3cc4c(cc3[C@@H](O)C3COC(=O)C32)OCO4)cc(OC)c1O (stereo partly specified)
0.316 µM (active)

Give recorded Potency. CCC(OC(C)=O)C(CC(C)NC)(c1ccccc1)c1ccccc1 (stereo unspecified)
28.2 µM (active)

Give recorded Potency. O=C(Nc1ccncc1)C(=O)c1cn(Cc2ccc(Cl)cc2)c2ccccc12
0.126 µM (active)

Give recorded Potency. CC1(N2CCC(n3c([C@@H]4CCCNC4)nc4ccccc43)CC2)CCCCCCC1
28.2 µM (active)

---

- assay-comment: Viability qHTS for spleen associated tyrosine kinase inhibitor (SYKi) drug resistant MV4-11 cells (AID 1963824); further: nearly all actives have a fitted effect of over 35% in size
- condition: SYKi-resistant MV4-11 viability, CellTiter-Glo, 72 h; series mostly up to 45 µM
Records with an inconclusive call do not appear. Activity calls are given as the source filed them. Calls follow the shape of the dose curve; as a rule, active = well fitted cell-killing curve with a large enough effect; inconclusive = small, poorly fitted or top-dose-only effect, or effect the other way; inactive = no such curve, though single readings can be large or run the other way.
Respond with a class label; see active, inactive

Assay outcome for CC(C)(O)/C=C/C(=O)[C@](C)(O)[C@H]1[C@H](O)C[C@@]2(C)[C@@H]3CC=C4[C@@H](C[C@H](O)C(=O)C4(C)C)[C@]3(C)C(=O)C[C@]12C : what was it?
active

Assay outcome for C[C@H]1C(=O)O[C@H]2[C@H](O)[C@]34C5OC(=O)[C@]3(O[C@@H]3OC(=O)[C@H](O)C34[C@H](C(C)(C)C)[C@H]5O)C12O (stereo partly drawn) : what was it?
inactive

Assay outcome for C/C=C(\C)C(O)C(C)/C=C(C)/C=C/C/C(C)=C/Cc1nc(OC)c(OC)c(O[C@@H]2O[C@@H](C)[C@H](O)[C@@H](O)[C@H]2O)c1C (stereo partly drawn) : what was it?
active

Assay outcome for O=c1[nH]c2ccccc2n1C1CCNCC1 : what was it?
inactive

Assay outcome for C[C@]12CC[C@@H](O[C@@H]3O[C@H](CO)[C@@H](O)[C@H](O)[C@H]3O)C[C@@]1(O)CCC1C2CC[C@]2(C)[C@@H](C3=CC(=O)OC3)CC[C@]12O (stereo partly drawn) : what was it?
active

Assay outcome for COc1ccc2c(c1)/C(=C/c1cnc[nH]1)C(=O)N2 : what was it?
active

Assay outcome for COC1CC(OC2CCC3(C=O)C(CCC4C3CCC3(C)C(C5=CC(=O)OC5)CCC43O)C2)OC(C)C1O (stereo not drawn) : what was it?
active

Assay outcome for O=C(O)COc1ccccc1 : what was it?
inactive

---

- assay-comment: Quantitative highthroughput screen to assess conditional lethalithy of SEM cells grown in RPMI1640 with dialyzed fetal bovine serum (RPMI+ds) (AID 1963884); further: nearly all actives have a fitted effect of over 35% in size
- condition: SEM B-ALL cells, RPMI+dialyzed FBS, CellTiter-Glo viability, 48 h; series mostly up to 45.8 µM
- Method: Assay Provider: Jason Cantor Ph.D. Department of Biochemistry University of Wisconsin-Madison, Madison, WI, USA Chemical screening studies have identified drug sensitivities across hundreds of cancer cell lines but most putative therapeutics fail to translate. […] Sets of conditional anticancer compounds spanned phases of clinical development and included non-oncology drugs were assessed. […] 6; Detection; Luminescence, Viewlux PerkinElmer. […]
Results filed as inconclusive are left out. The source made the active and inactive calls. The call rests on the fitted dose curve; in most records, active means well fitted cell-killing curve with a large enough effect; inconclusive means small, poorly fitted or top-dose-only effect, or effect the other way; inactive means no such curve, though single readings can be large or run the other way.
Respond with a class label; see Y (active), N (inactive)

Assay outcome for CC(=O)OCC1=C(C(=O)O)N2C(=O)[C@@H](N)[C@@H]2SC1 : what was it?
N

Assay outcome for CC(C)c1cccc(C(C)C)c1O : what was it?
N

Assay outcome for C[C@H]1CCCC=CC2C[C@H](O)C[C@@H]2[C@H](O)C=CC(=O)O1 (stereo partly drawn) : what was it?
N

Assay outcome for CNCC(O)c1ccc(O)cc1 (stereo not drawn) : what was it?
N

Assay outcome for C#C[C@]1(O)C=C[C@@H]2[C@@H]3CCC4=CC(=O)CC[C@@H]4[C@H]3CC[C@@]21CC : what was it?
N

Assay outcome for CCOC(=O)c1cncn1[C@H](C)c1ccccc1 : what was it?
N

Assay outcome for COC[C@@H](NC(C)=O)C(=O)NCc1ccccc1 : what was it?
N

Assay outcome for Cc1ccccc1-n1c(Cn2ncc3c(N)ncnc32)nc2cccc(C)c2c1=O : what was it?
N

Assay outcome for CN(C)[C@@H]1C(=O)C(C(N)=O)=C(O)[C@@]2(O)C(=O)C3=C(O)c4c(O)cccc4[C@@](C)(O)[C@H]3[C@H](O)[C@@H]12 : what was it?
N

Assay outcome for C=C(C)[C@H]1Cc2c(ccc3c2O[C@@H]2COc4cc(OC)c(OC)cc4[C@@H]2C3=O)O1 : what was it?
Y

Assay outcome for CNC(=O)c1ccc(N2C(=S)N(c3ccc(C#N)c(C(F)(F)F)c3)C(=O)C23CCC3)cc1F : what was it?
N

Assay outcome for CC(=O)N(C)c1cccc(-c2ccnc3c(C(=O)c4cccs4)cnn23)c1 : what was it?
N

Assay outcome for C[C@@H]1CC[C@@]2(OC1)O[C@H]1C[C@H]3[C@@H]4CC=C5C[C@@H](O[C@@H]6O[C@H](CO)[C@@H](O[C@@H]7O[C@@H](C)[C@H](O)[C@@H](O)[C@@H]7O)[C@H](O)[C@@H]6O[C@@H]6O[C@@H](C)[C@H](O)[C@@H](O)[C@@H]6O)CC[C@]5(C)[C@@H]4CC[C@]3(C)[C@@H]1[C@H]2C : what was it?
Y

Assay outcome for C[C@]12CC[C@H]3[C@@H](CCC4=CC(=O)CC[C@@]43C)[C@H]1CC[C@H]2O : what was it?
N

Assay outcome for C[C@]12Cc3cn[nH]c3C[C@@H]1CC[C@@H]1[C@H]2CC[C@@]2(C)[C@H]1CC[C@]2(C)O : what was it?
N

Assay outcome for COc1ccc2c(c1)[C@]13CCCCC1C(C2)N(C)CC3 (stereo partly drawn) : what was it?
N

Assay outcome for CC1(N2CCC(n3c([C@@H]4CCCNC4)nc4ccccc43)CC2)CCCCCCC1 : what was it?
N

Assay outcome for O=C1CC[C@@]2(O)[C@H]3Cc4ccc(O)c5c4[C@@]2(CCN3CC2CC2)[C@H]1O5 : what was it?
N

---

- assay-comment: Quantitative highthroughput screen to assess conditional lethalithy of P12 Ichikawa cells grown in Human Plasma-Like Medium with dialyzed fetal bovine serum (HPLM+ds) (AID 1963879); further: nearly all actives have a fitted effect of over 35% in size
- condition: ATP luminescence, 48 h; viability; series mostly up to 45.8 µM
Inconclusive results are not listed. Calls of active or inactive are those of the source. The call rests on the fitted dose curve; in most records, active means well fitted cell-killing curve with a large enough effect; inconclusive means small, poorly fitted or top-dose-only effect; inactive means flat fitted curve, though single readings scatter.
Respond with a class label; see active, inactive

Assay outcome for CCOC(=O)c1cncn1[C@H](C)c1ccccc1 : what was it?
inactive

Assay outcome for C[C@H]1CCCC=CC2C[C@H](O)C[C@@H]2[C@H](O)C=CC(=O)O1 (some centres undefined) : what was it?
active

Assay outcome for CC1=C2C[C@@H]3[C@@H](CC=C4C[C@@H](O)CC[C@@]43C)[C@@H]2CC[C@]12O[C@H]1C[C@H](C)CN[C@H]1[C@H]2C : what was it?
inactive

Assay outcome for CNCC(O)c1ccc(O)cc1 (centres undefined) : what was it?
inactive

Assay outcome for O=C1C=CC[C@@H]2[C@H]3CCCN4CCC[C@@H](CN12)[C@@H]34 : what was it?
inactive

Assay outcome for CC(C)[C@H]1C(=O)N[C@H](CO)Cc2c[nH]c3cccc(c23)N1C : what was it?
inactive

Assay outcome for CCCC(C)(COC(N)=O)COC(=O)NC(C)C (centres undefined) : what was it?
inactive

Assay outcome for Cc1cccc(C)c1NC(=O)CN1CCCC1=O : what was it?
inactive

Assay outcome for CC=C(C)C(=O)O[C@H]1C(C)=C2[C@@H]3OC(=O)[C@@](C)(O)[C@@]3(O)[C@@H](OC(=O)CCC)C[C@](C)(OC(C)=O)[C@@H]2[C@@H]1OC(=O)CCCCCCC : what was it?
active

Assay outcome for CN1C(=O)COc2c(C(=O)NC3CN4CCC3CC4)cc(Cl)cc21 (centres undefined) : what was it?
inactive

Assay outcome for COc1cccc2c1[C@]13CCN(CC4CC4)[C@H](C2)[C@]1(OC)CCC(=O)C3 : what was it?
inactive

Assay outcome for COc1ccc(CC2NCCc3cc(OC)c(OC)cc32)cc1OC (centres undefined) : what was it?
inactive

Assay outcome for COc1ccc2c(c1OC)CN1CCc3cc4c(cc3C1C2)OCO4 (centres undefined) : what was it?
active

Assay outcome for CC(=O)OCC1=C(C(=O)O)N2C(=O)[C@@H](N)[C@@H]2SC1 : what was it?
active

Assay outcome for C[C@@H]1CC[C@@]2(OC1)O[C@H]1C[C@H]3[C@@H]4CC=C5C[C@@H](O[C@@H]6O[C@H](CO)[C@@H](O[C@@H]7O[C@@H](C)[C@H](O)[C@@H](O)[C@@H]7O)[C@H](O)[C@@H]6O[C@@H]6O[C@@H](C)[C@H](O)[C@@H](O)[C@@H]6O)CC[C@]5(C)[C@@H]4CC[C@]3(C)[C@@H]1[C@H]2C : what was it?
active

Assay outcome for Cc1c(C(=O)Nc2cccc(C(F)(F)F)c2)cc(-c2ccccc2)n1CCCN1CCOCC1 : what was it?
inactive

Assay outcome for CN[C@@H]1Cc2cccc3[nH]c(=O)n(c23)C1 : what was it?
inactive

Assay outcome for CC(O)=C(C#N)C(=O)Nc1cc(Br)ccc1Br : what was it?
inactive

Assay outcome for CC(C)N(CCNC(=O)CN1CCCC1=O)C(C)C : what was it?
inactive

Assay outcome for CC[C@@H](C(N)=O)N1CCCC1=O : what was it?
inactive

Assay outcome for O=[N+]([O-])c1ncc[nH]1 : what was it?
inactive

Assay outcome for COc1ccc(C(=O)c2c(C)n(CCN3CCOCC3)c3cc(I)ccc23)cc1 : what was it?
active

Assay outcome for C=C[C@@H]1CN2CCC1C[C@H]2[C@H](O)c1ccnc2ccccc12 (some centres undefined) : what was it?
inactive

Assay outcome for COc1ccc(C(CN(C)C)C2(O)CCCCC2)cc1 (centres undefined) : what was it?
inactive

Assay outcome for CCOC(=O)c1c(C(C#N)=CN)c2ccc(Cl)c(Cl)c2n1C : what was it?
inactive

Assay outcome for O=c1[nH]c2ccc(Cl)cc2c(N[C@@H]2CN3CCC2CC3)c1-c1nc2ccccc2[nH]1 : what was it?
active

Assay outcome for COCC1(CO)C(=O)C2CCN1CC2 (centres undefined) : what was it?
active

Assay outcome for COc1ccc2c(c1)CN(C)CC2c1ccc(Cl)c(Cl)c1 (centres undefined) : what was it?
inactive

Assay outcome for O=C(N[C@H]1CN2CCC1CC2)c1ccc(Cl)cc1 : what was it?
inactive

Assay outcome for CC(N[C@H]1C[C@H]1c1ccccc1)c1ccc2c(c1)OCCO2 (some centres undefined) : what was it?
inactive

Assay outcome for CCN(CC)C(=O)c1ccc(C2=CC3(CCNCC3)Oc3cccc(O)c32)cc1 : what was it?
inactive

Assay outcome for C[C@](O)(COc1ccc(C#N)cc1)C(=O)Nc1ccc(C#N)c(C(F)(F)F)c1 : what was it?
inactive

Assay outcome for C[C@]12CC[C@H]3[C@@H](CCC4=CC(=O)CC[C@@]43C)[C@H]1CC[C@H]2O : what was it?
inactive

Assay outcome for C[C@]12CCC(=O)C(O)=C1CC[C@@H]1[C@H]3CCC(=O)[C@@]3(C)CC[C@@H]12 : what was it?
inactive

Assay outcome for O=C(O)c1nn(Cc2ccc(Cl)cc2Cl)c2ccccc12 : what was it?
inactive

Assay outcome for Cc1ccccc1-n1c(Cn2ncc3c(N)ncnc32)nc2cccc(C)c2c1=O : what was it?
active

Assay outcome for Clc1ccccc1C(c1ccccc1)(c1ccccc1)n1cccn1 : what was it?
inactive

Assay outcome for Oc1ccc2c3c1O[C@H]1c4[nH]c5c(c4C[C@@]4(O)[C@@H](C2)N(CC2CC2)CC[C@]314)C[C@@]1(O)[C@H]2Cc3ccc(O)c4c3[C@@]1(CCN2CC1CC1)[C@H]5O4 : what was it?
inactive

Assay outcome for CCN1C[C@]2(OC(=O)c3ccccc3NC(C)=O)CC[C@H](OC)[C@@]34[C@H]5CC6[C@@H](OC)C[C@](O)(C(C[C@@H]23)[C@@H]14)[C@@]5(O)[C@@H]6OC : what was it?
inactive
